// data source = patent US20200317776A1

Target: T1, human TREM2 expressed on cells (human, UniProt Q9NZC2 19-230)
T1 sequence: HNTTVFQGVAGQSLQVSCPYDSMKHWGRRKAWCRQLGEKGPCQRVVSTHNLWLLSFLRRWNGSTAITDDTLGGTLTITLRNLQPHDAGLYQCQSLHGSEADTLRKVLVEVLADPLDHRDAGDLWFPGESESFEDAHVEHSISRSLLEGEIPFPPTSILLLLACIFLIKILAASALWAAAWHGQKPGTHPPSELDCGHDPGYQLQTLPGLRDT
Test summary: cell-based or functional assay
Reported endpoint: Mac viability (AUC)
Numbers only, in AUC.

AL2p-51 (antibody, V domains shown, Fab and IgG formats under one id) VH: QVQLVQSGAEVKKPGSSVKVSCKASGYAFSSHWMNWVRQAPGQGLEWMGRIYPGEGDTNYAQKFHGRVTITADESTSTAYMELSSLRSEDTAVYYCARLLRNQPGESYAMDYWGQGTLVTVSS VL: DVVMTQTPLSLSVTPGQPASISCRTSQSLVHSNQYTYLHWYLQKPGQSPQLLIYKVSNRVSGVPDRFSGSGSGTDFTLKISRVEAEDVGVYYCSQSTRVPYTFGQGTKLEIK = -11200

# evaluate next
stdin: Kindly indicate its recorded Mac viability (AUC). Item: AL2p-48 (antibody, V domains shown, Fab and IgG formats under one id) VH: QVQLVQSGAEVKKPGSSVKVSCKASGYAFSSDWMNWVRQAPGQGLEWMGRIYPGEGDTNYARKFHGRVTITADESTSTAYMELSSLRSEDTAVYYCARLLRNKPGESYAMDYWGQGTLVTVSS VL: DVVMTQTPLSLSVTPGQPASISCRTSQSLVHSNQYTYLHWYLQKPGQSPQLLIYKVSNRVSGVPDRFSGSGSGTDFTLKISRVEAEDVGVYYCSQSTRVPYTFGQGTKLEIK
stdout: 23600
